Measured values drawn from patent US20090136495A1 for this set.

Target: T1, human hepcidin-25 (human, not fully specified)
T1 construct: also called human mature hepcidin
T1 peptide: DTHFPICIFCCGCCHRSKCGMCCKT
Test: SPR (BIAcore), Fab captured on goat anti-human kappa, human hepcidin-25 injected, 25 C
value type: pKd
Give bare numbers, as −log10 of the molar value.

The following binders have reported results that may help.
Fab 3.12 (Fab, V domains shown, Fab with human kappa, from E. coli periplasm; frameworks O2 and VH1-69) VH: QVQLVQSGAEVKKPGSSVKVSCKASGYTFLIYPISWVRQAPGQGLEWMGNFHPYLGVTNYLEKFKGRVTITADKSTSTAYMELSSLRSEDTAVYYCARGGTGSFDYWGQGTTVTVSS VL: DIQMTQSPSSLSASVGDRVTITCSASSRVSSTYLFWYQQKPGKAPKLLIYRTSTLTSGVPSRFSGSGSGTDFTLTISSLQPEDFATYYCQQWSGYPFVFGGGTKVEIK: 10.05
Fab 3.23 (Fab, V domains shown, Fab with human kappa, from E. coli periplasm; frameworks O2 and VH1-69) VH: QVQLVQSGAEVKKPGSSVKVSCKASGYTFLIYPISWVRQAPGQGLEWMGNFHPYLGVTNYVEKFKGRVTITADKSTSTAYMELSSLRSEDTAVYYCARGGTGSFDYWGQGTTVTVSS VL: DIQMTQSPSSLSASVGDRVTITCSASSRVSSTYLFWYQQKPGKAPKLLIYRTSPLASGVPSRFSGSGSGTDFTLTISSLQPEDFATYYCQQWSGYPFVFGGGTKVEIK: 10.10

Continue with the binder presented below.
Challenge: For the binder Fab 1.7 (Fab, V domains shown, Fab with human kappa) VH: QVQLVQSGAEVKKPGSSVKVSCKASGYTFTIYPISWVRQAPGQGLEWMGNFHPYLGDTRYVEKFKGRVTITADKSTSTAYMELSSLRSEDTAVYYCARGGTGSFDYWGQGTTVTVSS VL: DIQMTQSPSSLSASVGDRVTITCSASSRVSSTYLFWYQQKPGKAPKLLIYRTSTLVSGVPSRFSGSGSGTDFTLTISSLQPEDFATYYCQQWSGYPFVFGGGTKVEIK , what pKd is on record?
Response given: 9.37
